B1: mRNA-splicing (parent)
chain: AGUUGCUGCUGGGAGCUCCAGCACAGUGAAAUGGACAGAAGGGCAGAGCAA

Variants of: B1
Assay: exon inclusion enrichment index; higher = more inclusion; WT1 exon 5 minigene, HEK293

{"Mutation Id": "C6A U7C C9A U10C A20C G21C", "exon inclusion enrichment index": 2.31}
{"Mutation Id": "G5C C6A U7C G8A U10A A23U", "exon inclusion enrichment index": 0.0425}
{"Mutation Id": "C6A U7C C9A U10G G11A", "exon inclusion enrichment index": 2.06}
{"Mutation Id": "G5U G8U C9U A35C C36A", "exon inclusion enrichment index": 0.0636}
{"Mutation Id": "U10A G11U", "exon inclusion enrichment index": 2.73}
{"Mutation Id": "G5C C6A U7C G8A U10A G28U", "exon inclusion enrichment index": 0.00934}
{"Mutation Id": "G5C C6G U7C U10C G15U", "exon inclusion enrichment index": 3.45}
{"Mutation Id": "G5C C6U G8C C9U U10C C18G", "exon inclusion enrichment index": 2.21}
{"Mutation Id": "C6A U7A C9A U10A A30G A31U", "exon inclusion enrichment index": 0.133}
{"Mutation Id": "G5A C6G U7G C9A G33A G34U", "exon inclusion enrichment index": 0.000917}
{"Mutation Id": "U4C U7C G8A U10C", "exon inclusion enrichment index": 3.91}
{"Mutation Id": "C6A U7C C9A U10C U32G G33A", "exon inclusion enrichment index": 1.61}
{"Mutation Id": "G5C C6A U7C G8A U10A U32C", "exon inclusion enrichment index": 0.292}
{"Mutation Id": "C6A U7A C9A U10A A45C G46U", "exon inclusion enrichment index": 0.191}
{"Mutation Id": "G5C C6U G8C C9U U10C G28C A29C", "exon inclusion enrichment index": 1.58}
{"Mutation Id": "U3A U4G G5C C6U G8C C9U U10C", "exon inclusion enrichment index": 0.155}
{"Mutation Id": "G5C C6G U7C U10C A23U", "exon inclusion enrichment index": 2.51}
{"Mutation Id": "G5U G8U C9U G43U", "exon inclusion enrichment index": 0.16}
{"Mutation Id": "G5C C6A U7C G8A U10A C19U A20G", "exon inclusion enrichment index": 0.0251}
{"Mutation Id": "G5C C6U G8C C9U U10C", "exon inclusion enrichment index": 2.2}
{"Mutation Id": "C6A U7A C9A U10A C19A A20C", "exon inclusion enrichment index": 0.41}
{"Mutation Id": "U4G C6U U7A G8U C9A", "exon inclusion enrichment index": 0.0761}
